Numbers sourced from patent US20080227711A1.

Target: T1, murine CXCL2/MIP-2 (murine, UniProt P10889 28-100)
T1 sequence: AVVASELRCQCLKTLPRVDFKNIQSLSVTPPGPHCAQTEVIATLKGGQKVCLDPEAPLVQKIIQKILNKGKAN
Test: SPR (Biacore 3000), Evasin-3 from E. coli immobilized on CM4 chip, Kd=kd/ka
assay.endpoint: pKd
Scale: pKd equals -log10([C]), with [C] in mol/L.

(Q) # input binder: recombinant Evasin-3 produced in E. coli (Met-Evasin-3) (other, No tag, not glycosylated; also called mature Met-Evasin-3) MLVSTIESRTSGDGADNFDVVSCNKNCTSGQNECPEGCFCGLLGQNKKGHCYKIIGNLSGEPPVVRR ; wanted: its pKd
(A) 9.08
